assayed.target: c-Cbl (Homo sapiens (Human), UniProt P22681)
Sequence (P22681 47-435): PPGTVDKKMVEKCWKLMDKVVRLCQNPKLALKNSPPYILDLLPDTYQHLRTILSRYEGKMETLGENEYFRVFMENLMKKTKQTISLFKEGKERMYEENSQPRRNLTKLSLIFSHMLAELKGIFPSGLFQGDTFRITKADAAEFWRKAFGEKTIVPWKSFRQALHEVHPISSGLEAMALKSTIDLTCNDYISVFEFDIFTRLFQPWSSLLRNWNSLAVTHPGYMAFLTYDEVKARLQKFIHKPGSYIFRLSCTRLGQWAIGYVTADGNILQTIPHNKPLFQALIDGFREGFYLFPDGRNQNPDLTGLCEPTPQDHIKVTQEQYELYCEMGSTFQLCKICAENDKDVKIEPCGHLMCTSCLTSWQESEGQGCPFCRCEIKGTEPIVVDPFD
protocol: C-Cbl LCK Ub TR-FRET assay (c-cbl Lck HTRF)
Assay type: biochemical
setup.conditions: C-cbl Lck HTRF IC50 relative to Cbl-b Lck HTRF IC50
endpoint: (fold-selectivity)

Cn1cnnc1CC1(c2cccc(N3Cc4c(cc(CN5CC(C)(F)C5)cc4C(F)(F)F)C3=O)c2)CC(F)(F)C1 [Compound 107] | 1.0x
CC(C)[C@H]1CNCCN1Cc1cc2c(c(C(F)(F)F)c1)CN(c1cccc(C3([C@H](F)c4nncn4C)CCC3)c1)C2=O [Compound 217] | 1.2x
CO[C@@H]1CCN(Cc2cc3c(c(C(F)(F)F)c2)CN(c2cccc(C4([C@@H](F)c5nncn5C)COC4)c2)C3=O)C1 [Compound 47] | 1.8x
CC1CN(Cc2cc3c(c(C(F)(F)F)c2)CN(c2cccc(C4([C@H](F)c5nncn5C)COC4)c2)C3=O)CCCO1 (stereo partly shown) [Compound 120] | 1.2x

Ask: Please give the measured (fold-selectivity) for this compound: Cn1cnnc1CC1(c2cccc(N3Cc4c(cc(CN5CC(C)(O)C5)cc4C(F)(F)F)C3=O)c2)CC(F)(F)C1 [Compound 17]
Result: 0.85x

Ask: Please give the measured (fold-selectivity) for this compound: CNCc1cc2c(c(C(F)(F)F)c1)CN(c1cccc(C3([C@@H](F)c4nncn4C)COC3)c1)C2=O [Compound 212]
Result: 1.7 x

Ask: Please give the measured (fold-selectivity) for this compound: CC(C)[C@H]1CN(Cc2cc3c(c(C(F)(F)F)c2)CN(c2cccc(C4(Cc5nncn5C)CC(F)(F)C4)c2)C3=O)CCN1 [Compound 429]
Result: (0.76x)

Ask: Please give the measured (fold-selectivity) for this compound: CC(C)[C@H]1CN(C)CCN1Cc1cc2c(c(C(F)(F)F)c1)CN(c1cccc(C3(Cc4nncn4C(F)F)COC3)c1)C2=O [Compound 266]
Result: (0.76x)

###

assayed.target: Cbl-b (Homo sapiens (Human))
Sequence (Q13191 40-426): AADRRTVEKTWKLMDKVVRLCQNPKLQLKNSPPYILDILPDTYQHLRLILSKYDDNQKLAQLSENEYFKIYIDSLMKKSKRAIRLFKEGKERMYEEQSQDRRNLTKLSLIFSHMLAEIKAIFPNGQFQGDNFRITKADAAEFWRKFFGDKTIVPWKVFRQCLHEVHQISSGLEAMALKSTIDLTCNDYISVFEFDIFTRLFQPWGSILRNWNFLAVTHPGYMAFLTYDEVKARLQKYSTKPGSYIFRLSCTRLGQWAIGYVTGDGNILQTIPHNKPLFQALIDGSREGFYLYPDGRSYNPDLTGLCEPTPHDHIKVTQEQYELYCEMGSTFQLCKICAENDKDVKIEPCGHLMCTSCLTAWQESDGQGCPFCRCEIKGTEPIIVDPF
protocol: Cbl-b LCK Ub TR-FRET assay (Cbl-b Lck HTRF)
Type: biochemical
endpoint: pIC50
// returns pIC50 (minus log10 of molar concentration), number only

Ask: Form entry - test system: Cbl-b (Homo sapiens (Human)); read-out: pIC50; compound: `C[C@H]1CN(C)CCN1Cc1cc2c(c(C(F)(F)F)c1)CN(c1cccc(C3(Cc4nncn4C)CC(F)(F)C3)c1)C2=O`
Result: 7.38

Ask: Form entry - test system: Cbl-b (Homo sapiens (Human)); read-out: pIC50; compound: CCOc1cc(C2(Cc3nncn3C)CCC2)cc(N2Cc3c(cc(CNC4(C)CCC4)cc3C(F)(F)F)C2=O)n1 [Compound 359]
Result: 7.96

Ask: Form entry - test system: Cbl-b (Homo sapiens (Human)); read-out: pIC50; compound: `CC[C@H]1CN(Cc2cc3c(c(C(F)(F)F)c2)CN(c2cccc(C4(Cc5nncn5C)CC(F)(F)C4)c2)C3=O)CCN1`
Result: 7.68

Ask: Form entry - test system: Cbl-b (Homo sapiens (Human)); read-out: pIC50; compound: `Cn1cnnc1[C@@H](F)C1(c2cccc(N3Cc4c(cc(CN5CC[C@H](F)C5)cc4C(F)(F)F)C3=O)c2)COC1`
Result: 6.68

// provenance: patent US20250230147A1
